For each of the compounds below, state its AChE inhibition, inhibition (%) at 0.5 mM.
# Tested System: AChE (Homo sapiens, UniProt P22303)
# Sequence (P22303 32-614): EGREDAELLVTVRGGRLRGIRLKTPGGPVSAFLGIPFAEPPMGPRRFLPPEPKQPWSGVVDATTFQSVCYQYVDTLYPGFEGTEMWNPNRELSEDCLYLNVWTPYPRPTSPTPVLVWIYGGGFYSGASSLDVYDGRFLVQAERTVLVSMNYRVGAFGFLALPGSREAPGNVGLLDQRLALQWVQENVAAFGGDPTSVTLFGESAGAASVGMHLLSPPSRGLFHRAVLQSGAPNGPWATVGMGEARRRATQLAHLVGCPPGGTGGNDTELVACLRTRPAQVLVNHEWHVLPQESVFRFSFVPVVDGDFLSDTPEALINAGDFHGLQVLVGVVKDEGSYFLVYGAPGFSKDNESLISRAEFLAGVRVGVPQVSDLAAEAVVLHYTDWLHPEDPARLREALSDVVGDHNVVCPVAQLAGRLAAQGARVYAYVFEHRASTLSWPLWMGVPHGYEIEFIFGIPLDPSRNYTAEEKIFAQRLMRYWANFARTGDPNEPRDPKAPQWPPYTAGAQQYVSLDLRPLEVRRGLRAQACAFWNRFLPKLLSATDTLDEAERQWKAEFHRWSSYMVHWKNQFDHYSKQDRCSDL
# Run Conditions: 0.5 mM; mean ± SEM, triplicate
Answers are plain numbers, in %.

# Compound, Tested System, Experimental Value
records = [
    ("Cc1ccc(S(=O)(=O)N2CCC(c3nnc(SCC(=O)Nc4cc(C)cc(C)c4)n3C)CC2)cc1 [Compound 12m]", "AChE (Homo sapiens, UniProt P22303)", 92.73),
]

Hi team, please reply with AChE inhibition, inhibition (%) at 0.5 mM for each item in this list.
1. COc1ccccc1NC(=O)CSc1nnc(C2CCN(S(=O)(=O)c3ccc(C)cc3)CC2)n1C [Compound 12g]
2. CCOc1ccc(NC(=O)CSc2nnc(C3CCN(S(=O)(=O)c4ccc(C)cc4)CC3)n2C)cc1 [Compound 12h]
3. Cc1ccc(S(=O)(=O)N2CCC(c3nnc(SCC(=O)Nc4ccccc4C)n3C)CC2)cc1 [Compound 12c]

Result:
79.24
37.41
82.36

###

# Tested System: AChE (Homo sapiens)
Outcome Measure: IC50

The cases that follow already have their IC50 on record.
# Compound, IC50
records = [
    ("Cc1ccc(S(=O)(=O)N2CCC(c3nnc(SCC(=O)Nc4c(C)cccc4C)n3C)CC2)cc1 [Compound 12l]", "288 µM"),
    ("CCc1cccc(C)c1NC(=O)CSc1nnc(C2CCN(S(=O)(=O)c3ccc(C)cc3)CC2)n1C [Compound 12n]", "328 µM"),
]

Hi team, please reply with IC50 for each item in this list.
1. Cc1ccc(S(=O)(=O)N2CCC(c3nnc(SCC(=O)Nc4cc(C)ccc4C)n3C)CC2)cc1 [Compound 12k]
2. Cc1ccc(S(=O)(=O)N2CCC(c3nnc(SCC(=O)Nc4cccc(C)c4C)n3C)CC2)cc1 [Compound 12i]
3. Cc1ccc(S(=O)(=O)N2CCC(c3nnc(SCC(=O)Nc4ccccc4)n3C)CC2)cc1 [Compound 12b]

Result:
1: 213 µM; 2: 117 µM; 3: 85.5 µM

Hi team, please reply with IC50 for each item in this list.
1. Cc1ccc(S(=O)(=O)N2CCC(c3nnc(SCC(=O)Nc4ccccc4C)n3C)CC2)cc1 [Compound 12c]
2. Cc1ccc(S(=O)(=O)N2CCC(c3nnc(SCC(=O)Nc4cccc(C)c4)n3C)CC2)cc1 [Compound 12d]
3. Cc1ccc(NC(=O)CSc2nnc(C3CCN(S(=O)(=O)c4ccc(C)cc4)CC3)n2C)cc1 [Compound 12e]
4. Cc1ccc(S(=O)(=O)N2CCC(c3nnc(SCC(=O)Nc4ccc(C)cc4C)n3C)CC2)cc1 [Compound 12j]
5. COc1ccccc1NC(=O)CSc1nnc(C2CCN(S(=O)(=O)c3ccc(C)cc3)CC2)n1C [Compound 12g]
6. Cc1ccc(S(=O)(=O)N2CCC(c3nnc(SCC(=O)Nc4c(C)cccc4[N+](=O)[O-])n3C)CC2)cc1 [Compound 12o]

Result:
["135 µM", "0.73 µM", "97.9 µM", "94.6 µM", "150 µM", "130 µM"]

Hi team, please reply with IC50 for each item in this list.
1. Cc1ccc(S(=O)(=O)N2CCC(c3nnc(SCC(=O)Nc4cc(C)cc(C)c4)n3C)CC2)cc1 [Compound 12m]
2. Cc1ccc(S(=O)(=O)N2CCC(c3nnc(SCC(=O)NC4CCCCC4)n3C)CC2)cc1 [Compound 12a]

Result:
1: 0.42 µM; 2: 476 µM

Where do the numbers come from? From paper PMC9476189.
